These data points were gathered from PubChem BioAssay.

- target.of.assay: Homeobox protein Hox-A13 (Mus musculus)
- assay.info: disruptors of Hoxa13 oligonucleotide interaction – biochemical, fluorescence polarization, labeled oligonucleotide, primary screen (AID 1185)
- condition: Hoxa13:DNA binding, 15 min, higher = more signal, called active from +8 up or from −8 down
endpoint.label: z-score

>  <compound>
CCOC(=O)C[C@H]1[C@H](OC(=O)c2ccc(C(=O)c3ccccc3)cc2)[C@@H](NC(=O)CC(C)C)c2cc(OCCCO)ccc2N1C(=O)c1ccccc1

>  <target.of.assay>
Homeobox protein Hox-A13 (Mus musculus)

>  <endpoint.label>
z-score

>  <data.value>
-3.51

$$$$
>  <compound>
CCCCCCc1nc(Cc2cc(OC)c(OC)c(OC)c2)cc2c1[Si](C(C)C)(C(C)C)OC2

>  <target.of.assay>
Homeobox protein Hox-A13 (Mus musculus)

>  <endpoint.label>
z-score

>  <data.value>
-3.54

$$$$
>  <compound>
COC(=O)C/C=C/C[C@]1(O)C(=O)N(C)c2ccccc21

>  <target.of.assay>
Homeobox protein Hox-A13 (Mus musculus)

>  <endpoint.label>
z-score

>  <data.value>
-1.32

$$$$
>  <compound>
COc1ccc(C(=O)Nc2ccc(CN3C(=O)[C@]4(O[C@H](CC(=O)N5Cc6ccccc6C[C@H]5CO)[C@@H]([Si](C)(C)c5ccc(OC)cc5)[C@@H]4C)c4ccccc43)cc2)cc1

>  <target.of.assay>
Homeobox protein Hox-A13 (Mus musculus)

>  <endpoint.label>
z-score

>  <data.value>
0.247

$$$$
>  <compound>
CC(C)[Si](C#C[Si](C(C)C)(C(C)C)C(C)C)(O[C@H](c1ccccc1)c1cn(Cc2ccccc2)nn1)C(C)C

>  <target.of.assay>
Homeobox protein Hox-A13 (Mus musculus)

>  <endpoint.label>
z-score

>  <data.value>
0.371

$$$$
>  <compound>
CC(c1ccccc1)C(O)C1C=CC2C(=O)N(C)C(=O)C2N1Nc1ccccc1 (stereo not drawn)

>  <target.of.assay>
Homeobox protein Hox-A13 (Mus musculus)

>  <endpoint.label>
z-score

>  <data.value>
-3.9

$$$$
>  <compound>
CC#CCO[Si](C#Cc1ccccc1)(C(C)C)C(C)C

>  <target.of.assay>
Homeobox protein Hox-A13 (Mus musculus)

>  <endpoint.label>
z-score

>  <data.value>
-1.19

$$$$
>  <compound>
COCCOC(=O)N1C(=O)[C@@]2(c3cc(C#CC4=CCCCC4)ccc31)[C@H](c1ccccc1OCCO)N1[C@H](c3ccccc3)[C@H](c3ccccc3)OC(=O)[C@H]1[C@@H]2C(=O)NC[C@H](O)c1ccccc1

>  <target.of.assay>
Homeobox protein Hox-A13 (Mus musculus)

>  <endpoint.label>
z-score

>  <data.value>
0.449

$$$$
